- System: MDRAB clinical strain AO80
- Type: cell-based, Acinetobacter baumannii
- testParameters: 24 h
No end group written: not given here.
attributeMeasured: MBC (µg/mL)
Provide the reading as a plain figure in µg/mL.

Example cases with answers are listed next.
Please state recorded MBC (tested on MDRAB clinical strain AO80) of GWGSFFKKAAHVGKHVGKAALTHYL-NH2 [Pleurocidin]
8

Try this substance next: GAKYAKIIYNYLKKIANALW [GW-A2]
16

Now consider GIKIAKKAITIAKKIAKIYW [GW-Q6] .
16

How about this substance: GWKKWFNRAKKVGKTVGGLAVDHYL-NH2 [NRC12]
32

Moving on to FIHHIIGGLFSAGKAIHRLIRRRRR [TP4]
32

Next:
Lab note: need MBC with MDRAB clinical strain AO80 for entry GRFKRFRKKFKKLFKKLSPVIPLLHLG [BMAP-27] , please look it up.
8

Moving on to GYNYAKKLANLAKKFANALW-NH2 [GW-H1a]
8

----------
- Test system: MDRAB clinical strain AN10
- Assay type: cell-based, Acinetobacter baumannii
- testParameters: 24 h
No end group written: not given here.
attributeMeasured: MBC (µg/mL)
Reply with just the number (in µg/mL).

Known results for substances:
Please look up its MBC: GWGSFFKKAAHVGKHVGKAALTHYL-NH2 [Pleurocidin]
16

Record: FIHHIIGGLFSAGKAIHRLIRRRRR [TP4]
8

Queued: GRFKRFRKKFKKLFKKLSPVIPLLHLG [BMAP-27]
4

Others:
MBC for GWKKWFNRAKKVGKTVGGLAVDHYL-NH2 [NRC12] ?
8

Further, for GIKIAKKAITIAKKIAKIYW [GW-Q6] ?
8

Okay, and GYNYAKKLANLAKKFANALW-NH2 [GW-H1a] ?
8

Next substance: GAKYAKIIYNYLKKIANALW [GW-A2]
8

----------
- Tested on: MDRAB clinical strains
- Type: cell-based, Acinetobacter baumannii
- testParameters: 24 h
No end group written: not given here.
Listed here: items and their measured MIC.

Here is how some substances turned out for MIC.
Need MIC of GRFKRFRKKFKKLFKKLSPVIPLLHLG [BMAP-27] , thanks.
4 to 16 µg/mL

Can you check GIKIAKKAITIAKKIAKIYW [GW-Q6] next?
8 to 16 µg/mL

Param item: GWKKWFNRAKKVGKTVGGLAVDHYL-NH2 [NRC12]
8 to 32 µg/mL

Would you kindly repeat that for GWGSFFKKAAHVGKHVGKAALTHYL-NH2 [Pleurocidin] ?
8 to 32 µg/mL

Further, for GYNYAKKLANLAKKFANALW-NH2 [GW-H1a] ?
8 to 16 µg/mL

Turning to the following substance.
Would you mind telling me what MIC value was observed for GAKYAKIIYNYLKKIANALW [GW-A2] ?
8 to 32 µg/mL

----------
- Tested on: MDRAB strain BF50
- Format: cell-based, Acinetobacter baumannii
- testParameters: 24 h
No end group written: not given here.
attributeMeasured: MIC

API: value(readout= MIC, system= MDRAB strain BF50, query= FIHHIIGGAASAGKAIHRLIRRRRR [L9A/F10A] )
64 µg/mL

What about this sequence? FIHHIIGGLFSAGKAAHRLIRRRRR [Peptide I16A]
16 µg/mL

Next: FIAAIIGGLFSAGKAIHRLIRRRRR [H3A/H4A]
64 µg/mL

Then this sequence: FIHHIIGGLFSAGKAIHRHHRRRRR [L19H/I20H]
32 µg/mL

Query FIHHIIGGLFSAGKAIHSLIHRRRR [R18S/R21H] next
16 µg/mL

// repeat for AAHHIIGGLFSAGKAIHRLIRRRRR [F1A/I2A] and report
16 µg/mL

Could you do the same for FIHHIIGGLFSAGKAEHRLIRRRRR [Peptide I16E] , please?
> 256 µg/mL

And FIHHIIGGLFSAGKARHRLIRRRRR [Peptide I16R] ?
64 µg/mL

Others:
Observed MIC on MDRAB strain BF50 for FIHHAAGGLFSAGKAIHRLIRRRRR [I5A/I6A] , please.
32 µg/mL

What about this sequence? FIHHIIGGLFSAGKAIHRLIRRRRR [TP4]
16 µg/mL

Param item: FIHHIIGGLFSVGKHIHRLIRRRRR [A12V/A15H]
16 µg/mL

----------
Attribute: MIC
- System: Acinetobacter baumannii 17,978
- Assay type: cell-based
- testParameters: 17,978, 24 h
No end group written: not given here.
Respond with the bare value in µg/mL.

Please report the recorded MIC for GIKIAKKAITIAKKIAKIYW [GW-Q6] .
16

----------
- Tested on: Acinetobacter baumannii 17,978;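 note: CLSI broth microdilution in 96-well polypropylene plates, MBC taken as lowest concentration giving no growth when clear wells were subcultured on LB agar for 24 h at 37 °C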
- Assay type: cell-based
- testParameters: 17,978, 24 h
No end group written: not given here.
Measured MIC by item
Field: numeric (µg/mL). Do not append units.

Here's what some known entries look like.
Param item = FIAAIIGGLFSAGKAIHRLIRRRRR [H3A/H4A] ; retrieve measured MIC.
64

Same again, this time with FIHHIIGGLFSAGKAIHSLIHRRRR [R18S/R21H]
16

Record: FIHHAAGGLFSAGKAIHRLIRRRRR [I5A/I6A]
32

For FIHHIIGGLFSVGKHIHRLIRRRRR [A12V/A15H] then?
16

---
Field request: MIC | item: FIHHIIGGLFSAGKAIHRHHRRRRR [L19H/I20H]
32

----------
- System: MDRAB clinical strain U95
- Type: cell-based, Acinetobacter baumannii
- testParameters: 24 h
No end group written: not given here.
attributeMeasured: MBC
Report as: number unit

I have this substance here, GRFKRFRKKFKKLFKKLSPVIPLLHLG [BMAP-27] , and I need its recorded MBC.
16 µg/mL

Query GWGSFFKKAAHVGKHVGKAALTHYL-NH2 [Pleurocidin] next
32 µg/mL

Here is the next substance: GAKYAKIIYNYLKKIANALW [GW-A2]
64 µg/mL

And for GYNYAKKLANLAKKFANALW-NH2 [GW-H1a] ?
32 µg/mL

Try GIKIAKKAITIAKKIAKIYW [GW-Q6] next.
32 µg/mL

Further cases:
Data request, read-out MBC, for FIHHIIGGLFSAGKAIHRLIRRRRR [TP4]
64 µg/mL

Lookup GWKKWFNRAKKVGKTVGGLAVDHYL-NH2 [NRC12]
32 µg/mL

----------
- Tested on: Acinetobacter baumannii 19,606
- Type: cell-based
- testParameters: 19,606, 24 h
No end group written: not given here.
attributeMeasured: MBC

// below: answered sequences
Tell me the measured MBC of FIHHAAGGLFSAGKAIHRLIRRRRR [I5A/I6A] , please.
64 µg/mL

// query: FIHHIIGGAASAGKAIHRLIRRRRR [L9A/F10A]
128 µg/mL

What about FIHHIIGGLFSAGKAEHRLIRRRRR [Peptide I16E] ?
> 256 µg/mL

Continuing:
Requested field: MBC. Item: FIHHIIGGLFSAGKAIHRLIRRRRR [TP4]
16 µg/mL

Also FIHHIIGGLFSAGKAIHRHHRRRRR [L19H/I20H] ?
64 µg/mL

----------
- Test system: MDRAB clinical strain U80
- Type: cell-based, Acinetobacter baumannii
- testParameters: 24 h
No end group written: not given here.
attributeMeasured: MIC (mg/L)
// units = mg/L; emit number, no label

A selection of reference data follows.
Requested field: MIC. Item: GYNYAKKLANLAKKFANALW-NH2 [GW-H1a]
16

Item: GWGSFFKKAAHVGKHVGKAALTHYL-NH2 [Pleurocidin]
16

Now this one: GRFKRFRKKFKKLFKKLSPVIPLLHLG [BMAP-27]
8

Now give it for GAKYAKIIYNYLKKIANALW [GW-A2] too.
16

Same again, this time with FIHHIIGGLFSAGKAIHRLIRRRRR [TP4]
32

Cool, now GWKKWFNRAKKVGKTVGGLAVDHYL-NH2 [NRC12]
32

Now for a further substance.
I'd like to know its MIC. The substance in question is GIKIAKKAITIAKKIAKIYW [GW-Q6]
16

----------
- Test system: MDRAB clinical strain AS40
- Format: cell-based, Acinetobacter baumannii
- testParameters: 24 h
No end group written: not given here.
attributeMeasured: MBC (µg/mL)
All answers are understood in µg/mL, so give the number only.

Worked cases, answers included:
Requested read-out: MBC. Entry: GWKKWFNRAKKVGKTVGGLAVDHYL-NH2 [NRC12]
32

Follow-up item: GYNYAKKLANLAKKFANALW-NH2 [GW-H1a]
8

How about this substance: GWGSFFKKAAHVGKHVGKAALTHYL-NH2 [Pleurocidin]
8

Others:
# input substance: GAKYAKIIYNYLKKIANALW [GW-A2] ; wanted: its MBC
16

Please answer likewise for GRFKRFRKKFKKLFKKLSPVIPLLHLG [BMAP-27]
8

// same read-out, input: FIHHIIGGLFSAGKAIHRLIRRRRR [TP4]
32

Check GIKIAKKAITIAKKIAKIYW [GW-Q6] too.
16
